# System: pigweed (Amaranthus retroflexus)
# EXPERIMENTAL DETAILS: Test A pre-/postemergence plant response
# Type: in vivo
# RUN CONDITIONS: Preemergence, 125 g ai/ha; 0 to 100 scale, 0 = no effect, 100 = complete control
Assign true to entries whose Plant response rating, Pigweed meets or exceeds 80; assign false to the rest.

Example entries and their recorded answers appear below.
COMPOUND: O=C1CCCC(O)=C1C(=O)c1cnc(-c2ccccc2)n(-c2ccccc2Br)c1=O
DISCRETE LABEL: false
--
COMPOUND: O=C1CCCC(O)=C1C(=O)c1cnc(-c2cc(F)cc(F)c2)n(CC2CCCO2)c1=O (centres unmarked)
DISCRETE LABEL: true
--
COMPOUND: Cc1ccc(-n2c(-c3cccc(C)c3)ncc(C(=O)C3=C(O)CCCC3=O)c2=O)cc1
DISCRETE LABEL: false
--
COMPOUND: O=C1CCCC(O)=C1C(=O)c1cnc(-c2cc(F)cc(F)c2)n(CC2CCCCC2)c1=O
DISCRETE LABEL: false
--
COMPOUND: Cc1ccccc1-n1c(-c2cccc(Br)c2)ncc(C(=O)C2=C(O)CCCC2=O)c1=O
DISCRETE LABEL: false
--
COMPOUND: CCCCn1c(-c2cccc(C)c2)ncc(C(=O)C2=C(O)C3CCC(C3)C2=O)c1=O (centres unmarked)
DISCRETE LABEL: false

(Q) Please indicate if the recorded Plant response rating, Pigweed for `Cc1ccc(-n2c(-c3ccccc3)ncc(C(=O)C3=C(O)CCCC3=O)c2=O)cc1C` meets or exceeds 80.
(A) false

(Q) Check if Plant response rating, Pigweed >= 80 (inclusive). Item: `COCCCn1c(-c2cccc(F)c2)ncc(C(=O)C2=C(O)CCCC2=O)c1=O`
(A) true

(Q) Is the recorded value of Plant response rating, Pigweed equal to or greater than 80 for this compound? CCCn1c(-c2ccccc2)ncc(C(=O)C2=C(O)C3CCC(C3)C2=O)c1=O (centres unmarked)
(A) true

(Q) Check the entry `Cc1ccc(F)cc1-n1c(-c2cccc(Br)c2)ncc(C(=O)C2=C(O)CCCC2=O)c1=O` : does Plant response rating, Pigweed equal or exceed 80?
(A) false

Source: patent US8952024B2
